Hey, just so you know, these numbers are from patent US12226494B2.

test: Proton Relaxation Enhancement (PRE) titration of Gd-complexes (GBCA) with HPTS: binding parameters Ka and Rb; conditions: relaxivity of the adduct with HPTS at saturation; T = 25° C., 21.5 MHz, pH = 7.0 ± 0.1
The following molecules are listed with their measured Rb values.

{"molecule": "CC(O)CN1CCN(CC(=O)O)CCN(CC(=O)O)CCN(CC(=O)O)CC1 (stereo not shown) [ProHance]", "Rb (mM⁻¹ s⁻¹)": 6.9}
{"molecule": "O=C([O-])CN1CCNCCN(CC(=O)[O-])CCN(CC(=O)[O-])CC1.[Gd+3] [Gd-DO3A]", "Rb (mM⁻¹ s⁻¹)": 9.5}
{"molecule": "O=C(O)CN1CCN(CC(=O)O)CCN(C(CO)C(O)CO)CCN(CC(=O)O)CC1 (stereo not shown) [Gadovist, Gadobutrol]", "Rb (mM⁻¹ s⁻¹)": 7.9}
{"molecule": "O=C(O)CN1CCN(CC(=O)O)CCN(CC(=O)O)CCN(CC(=O)O)CC1 [Dotarem]", "Rb (mM⁻¹ s⁻¹)": 7.4}

====

experiment: Proton Relaxation Enhancement (PRE) titration of Gd-complexes (GBCA) with HPTS: binding parameters Ka and Rb; conditions: interaction of GBCA (1 mM) with HPTS; Hepes/NaCl, T = 25° C., 21.5 MHz, pH = 7.0 ± 0.1

{"compound": "CC(O)CN1CCN(CC(=O)O)CCN(CC(=O)O)CCN(CC(=O)O)CC1 (stereo not shown)", "unit.label": "M⁻¹", "Ka": 628}
{"compound": "O=C(O)CN1CCN(CC(=O)O)CCN(C(CO)C(O)CO)CCN(CC(=O)O)CC1 (stereo not shown)", "unit.label": "M⁻¹", "Ka": 1157}
{"compound": "O=C(O)CN1CCN(CC(=O)O)CCN(CC(=O)O)CCN(CC(=O)O)CC1", "unit.label": "M⁻¹", "Ka": 174}
{"compound": "O=C([O-])CN1CCNCCN(CC(=O)[O-])CCN(CC(=O)[O-])CC1.[Gd+3]", "unit.label": "M⁻¹", "Ka": 246}

====

test: Proton Relaxation Enhancement (PRE) titration of ProHance with polyarylenes and reference compounds: Ka and Rb; assay type: binding; conditions: relaxivity of the adduct with ProHance at saturation; T = 25° C., 21.5 MHz, pH = 7.0 ± 0.1
Rb overview

{"compound": "COc1cc(S(=O)(=O)O)c2ccc3c(S(=O)(=O)O)cc(S(=O)(=O)O)c4ccc1c2c43", "Rb / mM⁻¹ s⁻¹": 6.5}
{"compound": "O=S(=O)(O)c1cc(O)c2ccc3c(S(=O)(=O)O)cc(S(=O)(=O)O)c4ccc1c2c34 [HPTS, 8-Hydroxypyrene-1,3,6-trisulfonic acid]", "Rb / mM⁻¹ s⁻¹": 6.9}
{"compound": "O=S(=O)(O)c1cc(S(=O)(=O)O)c2ccc3c(S(=O)(=O)O)cc(S(=O)(=O)O)c4ccc1c2c43", "Rb / mM⁻¹ s⁻¹": 7.3}
{"compound": "O=S(=O)(O)c1ccc2cc(S(=O)(=O)O)ccc2c1", "Rb / mM⁻¹ s⁻¹": 5.4}
{"compound": "O=S(=O)(O)c1cc(S(=O)(=O)O)c2ccc3c(O)cc(O)c4ccc1c2c43 [HPDS, 6,8-Dihydroxypyrene-1,3-disulfonic acid]", "Rb / mM⁻¹ s⁻¹": 10.9}
{"compound": "Nc1cc(S(=O)(=O)O)c2ccc3c(S(=O)(=O)O)cc(S(=O)(=O)O)c4ccc1c2c43", "Rb / mM⁻¹ s⁻¹": 7.6}
{"compound": "O=C(O)COc1cc(S(=O)(=O)O)c2ccc3c(S(=O)(=O)O)cc(S(=O)(=O)O)c4ccc1c2c43", "Rb / mM⁻¹ s⁻¹": 8.5}
{"compound": "O=S(=O)(O)c1cccc2c(S(=O)(=O)O)cccc12", "Rb / mM⁻¹ s⁻¹": 6.3}
